Target: T1, LUXFL (UniProt Q9SNB4 1-323)
T1 sequence: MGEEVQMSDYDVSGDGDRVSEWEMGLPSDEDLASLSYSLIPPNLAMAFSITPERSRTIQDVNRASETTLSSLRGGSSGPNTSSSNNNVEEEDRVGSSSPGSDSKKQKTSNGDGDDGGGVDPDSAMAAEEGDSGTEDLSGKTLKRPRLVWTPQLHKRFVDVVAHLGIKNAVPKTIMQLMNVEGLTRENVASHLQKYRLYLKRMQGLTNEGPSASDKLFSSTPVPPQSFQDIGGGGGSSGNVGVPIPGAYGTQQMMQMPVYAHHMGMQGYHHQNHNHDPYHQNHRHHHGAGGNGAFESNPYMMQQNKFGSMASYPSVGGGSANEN
Test: EMSA
pKd: −log10 of the molar value.

{"columns": ["BINDER", "pKd"],
 "data": [
  ["Oligo 1 (PRR9 36 bp) (dsDNA) DNA 1: ATGATGTCTTCTCAAGATTCGATAAAAATGGTGTTG DNA 2: CAACACCATTTTTATCGAATCTTGAGAAGACATCAT", 7.03],
  ["Oligo 3 (AAGATCTT) (dsDNA) DNA 1: ATGATGTCTTCTCAAGATCTTATAAAAATGGTGTTG DNA 2: CAACACCATTTTTATAAGATCTTGAGAAGACATCAT", 7.03],
  ["Oligo 4 (GGATCCGA) (dsDNA) DNA 1: ATGATGTCTTCTCGGATCCGATAAAAATGGTGTTG DNA 2: CAACACCATTTTTATCGGATCCGAGAAGACATCAT", 6.93],
  ["Oligo 2 (AGATACGC) (dsDNA) DNA 1: ATGATGTCTTCTCAAGATACGCTAAAAATGGTGTTG DNA 2: CAACACCATTTTTAGCGTATCTTGAGAAGACATCAT", 7.01],
  ["Oligo 5 (ATATTCGA) (dsDNA) DNA 1: ATGATGTCTTCTCGAATATTCGATAAAAATGGTGTTG DNA 2: CAACACCATTTTTATCGAATATTCGAGAAGACATCAT", 6.75]
]}
